Ref: ChEMBL document CHEMBL6121042

Field: CC50 at 72 h. Provide a value for each of the compounds that follow.
assay: Cytotoxicity against human HFF cells assessed as reduction in cell viability incubated for 72 hrs by CCK-8 assay; type: toxicity, cell-based
Numbers only, in µM.

[
  {
    "smiles str": "COC1=C(OC)C(=O)C([C@@H]2COc3cc(O)ccc3C2)=CC1=O",
    "CC50 at 72 h, µM": 13.7
  },
  {
    "smiles str": "COc1c(O)cc([C@@H]2COc3cc(O)ccc3C2)c(O)c1OC",
    "CC50 at 72 h, µM": 5.6
  },
  {
    "smiles str": "Oc1ccc(O)c(-c2cnc(-c3ccccc3)o2)c1",
    "CC50 at 72 h, µM": 69.3
  }
]

Answer for every listed entry: what is its CC50 at 72 h? The entries follow.
1. c1ccc(COc2ccc(-c3ncc(-c4ccccc4OCc4ccccc4)o3)cc2)cc1
2. Oc1cccc(-c2cnc(-c3ccccc3)o2)c1O

[A]
1. 72
2. 8.5

---

Field: selectivity ratio. Provide a value for each of the molecules that follow.
test: Selectivity index, ratio of CC50 for human HFF cells to IC50 for Plasmodium falciparum 3D7; format: toxicity, cell-based; details: read-out: Selectivity Index
Answers are plain numbers.

[
  {
    "smiles str": "COc1c(O)cc([C@@H]2COc3cc(O)ccc3C2)c(O)c1OC",
    "parameter": "selectivity ratio",
    "reported measurement": 0.9
  },
  {
    "smiles str": "COC1=C(OC)C(=O)C([C@@H]2COc3cc(O)ccc3C2)=CC1=O",
    "parameter": "selectivity ratio",
    "reported measurement": 2.3
  },
  {
    "smiles str": "c1ccc(COc2ccc(-c3ncc(-c4ccccc4OCc4ccccc4)o3)cc2)cc1",
    "parameter": "selectivity ratio",
    "reported measurement": 14.8
  },
  {
    "smiles str": "Oc1cccc(-c2cnc(-c3ccccc3)o2)c1O",
    "parameter": "selectivity ratio",
    "reported measurement": 2.7
  }
]

Please find the next molecule below.
[Q] So what does the record say about selectivity ratio for Oc1ccc(O)c(-c2cnc(-c3ccccc3)o2)c1 ?
[A] 9.4

---

tested on: Plasmodium falciparum; assay: Antiplasmodial activity against Plasmodium falciparum 3D7 infected in red blood cells assessed as parasitic growth inhibition incubated for 72 hrs by SYBR Green I staining based analysis; type: functional, organism-based
Active and inactive are the calls of the source. No cut-off for these calls is given here.
parameter: Activity

Record excerpt, results attached:
[
  {
    "smiles str": "COc1ccc([C@@H]2COc3cc(O)ccc3C2)c(O)c1OC",
    "Activity": "inactive"
  },
  {
    "smiles str": "COc1ccc([C@@H]2COc3cc(O)ccc3C2)c(OC)c1O",
    "Activity": "inactive"
  },
  {
    "smiles str": "COc1cc([C@@H]2COc3cc(O)ccc3C2)c(O)c(OC)c1OC",
    "Activity": "inactive"
  },
  {
    "smiles str": "COc1ccc2c(c1OC)O[C@H]1c3ccc(O)cc3OC[C@@H]21",
    "Activity": "inactive"
  }
]

Please find the next compound below.
[Q] So what does the record say about Activity for COc1c(O)cc2c(c1OC)O[C@H]1c3ccc(O)cc3OC[C@@H]21 ?
[A] inactive

---

test system: Plasmodium falciparum; assay: Antiplasmodial activity against Plasmodium falciparum 3D7 infected in red blood cells assessed as parasitic growth inhibition incubated for 72 hrs by SYBR Green I staining based analysis; assay type: functional, organism-based; settings: 3D7, 72 h
Field: IC50. Provide a value for each of the compounds that follow.
One number for each entry, in µM.

Record excerpt, results attached:
[
  {
    "compound": "Oc1cccc(-c2cnc(-c3ccccc3)o2)c1O",
    "u": "µM",
    "IC50": 3.1
  },
  {
    "compound": "COC1=C(OC)C(=O)C([C@@H]2COc3cc(O)ccc3C2)=CC1=O",
    "u": "µM",
    "IC50": 5.8
  },
  {
    "compound": "C[C@@H]1CC[C@H]2[C@@H](C)C(=O)O[C@@H]3O[C@@]4(C)CC[C@@H]1[C@]32OO4 [ARTEMISININ]",
    "u": "µM",
    "IC50": 0.025
  },
  {
    "compound": "c1ccc(COc2ccc(-c3ncc(-c4ccccc4OCc4ccccc4)o3)cc2)cc1",
    "u": "µM",
    "IC50": 4.8
  },
  {
    "compound": "Oc1ccc(O)c(-c2cnc(-c3ccccc3)o2)c1",
    "u": "µM",
    "IC50": 5.5
  },
  {
    "compound": "Oc1ccccc1-c1cnc(-c2ccccc2)o1",
    "u": "µM",
    "IC50": 4.6
  }
]

Please find the next compound below.
[Q] So what does the record say about IC50 for COc1c(O)cc([C@@H]2COc3cc(O)ccc3C2)c(O)c1OC ?
[A] 6.2
